Tested on: HOP-62
Measurement protocol: NCI tumour cell line growth inhibition, 48 h
The source made the active and inactive calls. Rule as the data show it: active = GI50 up to about 1.1 µM and inactive = higher.
Valid outcomes are listed here; reply with one: active, inactive

NC(=O)c1sc2nc3ccccc3n2c1N
inactive

Request: // param item: CC1=NN(c2nc(N)nc(C(C#N)C(=O)c3cc4c(cc3Cl)Sc3nccn3S4(=O)=O)n2)C(C)(C)C1 (stereo not given) ; yields the recorded call
Response: inactive

Request: // param item: "CCCNC1=C(C)C(=O)C2=C(C1=O)[C@H](COC(N)=O)[C@]1(OC)[C@@H]3N[C@@H]3CN21" ; yields the recorded call
Response: active

Request: // param item: CCCCCCCCCCCCNC(=O)CCC(NC(=O)c1ccc(N(C)Cc2cnc3nc(N)nc(N)c3n2)cc1)C(=O)NCCCCCCCCCCCC (stereo not given) ; yields the recorded call
Response: inactive

Request: // param item: CC(=O)OC1(C)C(=O)OC/C2=C/CN(C)CCC(OC(=O)C(O)(C(C)Cl)CC1C)C2=O.c1ccccc1 (stereo not given) ; yields the recorded call
Response: inactive

Request: // param item: "CCOP(=O)(C/C=C/Cn1ncc(=O)[nH]c1=O)OCC" ; yields the recorded call
Response: inactive

Request: // param item: "COc1c(O)cc2c(c1O)C(=O)C1=C(CCCC1)C2=O" ; yields the recorded call
Response: inactive

Request: // param item: "Cn1nc(-c2ccccc2)c(C(=O)/C=C/c2ccc(Cl)cc2)c(N2CCOCC2)c1=O" ; yields the recorded call
Response: inactive

Request: // param item: "COc1ccc2c(c1)CC[C@@H]1[C@@H]2CC[C@]2(C)C(=O)/C(=C/c3cc(OC)c(OC)c(OC)c3)C[C@@H]12" ; yields the recorded call
Response: inactive

Request: // param item: "CCOC(=O)NC" ; yields the recorded call
Response: inactive
